Tested on: Streptococcus salivarius
Assay: growth AUC relative to DMSO control (median of replicates) (fraction); higher = more growth (less inhibition), active = hit call of the paper
Conditions: 20 µM; 24 h

compound: COP(=S)(OC)SCN1C(=O)c2ccccc2C1=O
growth AUC: 0.979 (inactive)
//
compound: COC(=O)Nc1nc2ccccc2[nH]1
growth AUC: 0.971 (inactive)
//
compound: CCOCn1c(-c2ccc(Cl)cc2)c(C#N)c(Br)c1C(F)(F)F
growth AUC: 0.944 (inactive)
//
compound: CCOP(=S)(OCC)SCS(=O)C(C)(C)C (stereo not given)
growth AUC: 1.04 (inactive)
//
compound: Nc1cc(Cl)cc(C(=O)O)c1Cl
growth AUC: 1.02 (inactive)
//
compound: CCOP(=S)(OCC)SCS(=O)CC (stereo not given)
growth AUC: 0.976 (inactive)
//
compound: O=[N+]([O-])NC1=NCOCN1Cc1cnc(Cl)s1
growth AUC: 0.85 (inactive)
//
compound: Cn1cc(-c2ccccc2)c(=O)c(-c2cccc(C(F)(F)F)c2)c1
growth AUC: 0.986 (inactive)
//
compound: CC(C)N1C(=O)N(c2ccccc2)CSC1=NC(C)(C)C
growth AUC: 0.953 (inactive)
//
compound: CN(C)C(CSS(=O)(=O)[O-])CSS(=O)(=O)O.[Na+]
growth AUC: 0.979 (inactive)
//
compound: CCOC(=O)CCN(Cc1ccccc1)SN(C)C(=O)O/N=C(/C)SC
growth AUC: 0.976 (inactive)
//
compound: CCNc1nc(Cl)nc(NC(C)C)n1
growth AUC: 0.966 (inactive)
//
compound: C=CC(N)=O
growth AUC: 1.01 (inactive)
//
compound: Cc1c(F)c(F)c(COC(=O)[C@@H]2[C@H](/C=C(\Cl)C(F)(F)F)C2(C)C)c(F)c1F (mixture of isomers)
growth AUC: 0.993 (inactive)
//
compound: CCC(C)(c1ccc(O)cc1)c1ccc(O)cc1
growth AUC: 0.96 (inactive)
//
compound: CCOP(=S)(OCC)SCSCC
growth AUC: 1.02 (inactive)
//
compound: CSC1=N[C@@](C)(c2ccccc2)C(=O)N1Nc1ccccc1
growth AUC: 1.01 (inactive)
//
compound: CCCOCC(=Nc1ccc(Cl)cc1C(F)(F)F)n1ccnc1
growth AUC: 0.982 (inactive)
//
compound: CC(C)(C)N(NC(=O)c1ccc(Cl)cc1)C(=O)c1ccccc1
growth AUC: 0.987 (inactive)
//
compound: CCOP(=S)(OCC)OP(=S)(OCC)OCC
growth AUC: 0.976 (inactive)
//
compound: Nc1c(Cl)c(Cl)c(Cl)c(Cl)c1Cl
growth AUC: 0.983 (inactive)
//
compound: CCOC(=O)CC(SP(=O)(OC)OC)C(=O)OCC (stereo not given)
growth AUC: 1.01 (inactive)
//
compound: CNC(=O)Oc1ccccc1C(C)C
growth AUC: 1.04 (inactive)
//
compound: CCOP(=S)(OCC)Oc1cnccn1
growth AUC: 1 (inactive)
//
compound: c1ccc2c(c1)ccc1c3ccccc3sc21
growth AUC: 1.05 (inactive)
